Test system: [Candida] auris
Assay: Antifungal activity against fluconazole-resistant Candida auris 918 assessed as inhibition of fungal growth incubated for 48 hrs by CLSI based broth microdilution assay
Type: functional
Details: Candidozyma auris
Listed molecules paired with reported MIC

structure.string: C[C@@H](OCc1ccn(Cc2ccc(Cl)cc2F)n1)[C@](O)(Cn1cncn1)c1ccc(F)cc1F
tested.system: [Candida] auris
MIC: 32 µg/mL
//
structure.string: C[C@@H](OCc1ccn(Cc2ccc(F)cc2)n1)[C@](O)(Cn1cncn1)c1ccc(F)cc1F
tested.system: [Candida] auris
MIC: 16 µg/mL
//
structure.string: C[C@@H](c1nc(-c2ccc(C#N)cc2)cs1)[C@](O)(Cn1cncn1)c1ccc(F)cc1F
tested.system: [Candida] auris
MIC: 1 µg/mL
//
structure.string: C[C@@H](OCc1ccn(Cc2ccc(Br)cc2)n1)[C@](O)(Cn1cncn1)c1ccc(F)cc1F
tested.system: [Candida] auris
MIC: 8 µg/mL
//
structure.string: C[C@@H](OCc1ccn(Cc2cc(F)ccc2F)n1)[C@](O)(Cn1cncn1)c1ccc(F)cc1F
tested.system: [Candida] auris
MIC: 32 µg/mL
//
structure.string: C[C@@H](OCc1ccn(Cc2ccc(Cl)cc2)n1)[C@](O)(Cn1cncn1)c1ccc(F)cc1F
tested.system: [Candida] auris
MIC: 8 µg/mL
//
structure.string: OC(Cn1cncn1)(Cn1cncn1)c1ccc(F)cc1F
tested.system: [Candida] auris
MIC: > 256 µg/mL
//
structure.string: C[C@@H](OCc1ccn(Cc2ccc(I)cc2)n1)[C@](O)(Cn1cncn1)c1ccc(F)cc1F
tested.system: [Candida] auris
MIC: 16 µg/mL

meta.source: ChEMBL document CHEMBL5579851
